Ref: the supplement of paper PMC6607015

# Test system: HeLa MZ
# Protocol Details: filipin (cholesterol) integrated intensity within LBPA endosomes, Z-score; higher = more cholesterol in LBPA endosomes
# Experimental Parameters: compound concentration in added solution (µM; 5 µl added to 20 µl cells): 10; 18 h
Counter-ions that a name gives are not always drawn.
Readout Type: filipin (z-score)
Reply with just the number.

Below, each entry is followed by its recorded filipin (z-score) result.
Compound	Readout Type	Measured Number
CN(C(=O)CN(CCO)CC(=O)N(C)C(C)(C)Cc1ccccc1)C(C)(C)Cc1ccccc1	filipin (z-score)	2.17
CN(Cc1ccc(C(C)(C)C)cc1)Cc1cccc2ccccc12 [Butenafine Hydrochloride]	filipin (z-score)	-0.793
CCC(NC(C)C)C(O)c1ccc(O)c(O)c1 (stereo not given) [Isoetharine mesylate salt]	filipin (z-score)	-0.32
CC1=C(/C=C/C(C)=C/C=C/C(C)=C\C(=O)O)C(C)(C)CCC1	filipin (z-score)	-0.54
CN1CCCC(n2nc(Cc3ccc(Cl)cc3)c3ccccc3c2=O)CC1 (stereo not given) [Azelastine HCl]	filipin (z-score)	3.01
CC(C(=O)O)c1ccc2c(c1)[nH]c1ccc(Cl)cc12 (stereo not given)	filipin (z-score)	-0.538
C#Cc1cccc(Nc2ncnc3cc(OCCOC)c(OCCOC)cc23)c1	filipin (z-score)	0.831
CC[N+](CC)(CC(=O)Nc1c(C)cccc1C)Cc1ccccc1 [Denatonium benzoate]	filipin (z-score)	-0.548
CCOC(=O)c1ccc(OC(=O)CCCCCNC(=N)N)cc1 [Gabexate mesilate]	filipin (z-score)	-0.456
C=CCc1ccccc1OCC(O)CNC(C)C (stereo not given) [Alprenolol hydrochloride]	filipin (z-score)	-0.133

Output filipin (z-score) of O=C(NCCN1CCOCC1)c1ccc(Cl)cc1 [Moclobemide]
-0.447

Output filipin (z-score) of Cc1ncc(C[n+]2csc(CCO)c2C)c(N)n1 [Thiamine hydrochloride]
-0.539

Output filipin (z-score) of CCOC(=O)O[C@]1(C(=O)COC(=O)CC)CC[C@H]2[C@@H]3CCC4=CC(=O)C=C[C@]4(C)[C@H]3[C@@H](O)C[C@@]21C [Prednicarbate]
-0.201

Output filipin (z-score) of C=C(NC(=O)C(=C)NC(=O)c1csc(C2=N[C@@H]3c4csc(n4)[C@H]4NC(=O)c5csc(n5)[C@H]([C@](C)(O)[C@@H](C)O)NC(=O)[C@H]5CSC(=N5)/C(=C/C)NC(=O)[C@H]([C@@H](C)O)NC(=O)c5csc(n5)[C@]3(CC2)NC(=O)[C@H](C)NC(=O)C(=C)NC(=O)[C@H](C)NC(=O)[C@H]([C@@H](C)CC)N[C@@H]2C=Cc3c([C@H](C)O)cc(nc3[C@H]2O)C(=O)O[C@@H]4C)n1)C(N)=O
-0.596

Output filipin (z-score) of CC(C)(C)NCC(O)c1ccc(O)c(CO)c1 (stereo not given)
-0.499

====

# Test system: HeLa MZ
# Protocol Details: LBPA endosome anti-LBPA integrated intensity (sum per cell), Z-score; higher = more LBPA staining
# Experimental Parameters: compound concentration in added solution (µM; 5 µl added to 20 µl cells): 10; 18 h
Structures can show the parent of a compound that is named as a salt.
Readout Type: LBPA endosome anti-LBPA integrated intensity (z-score)
Reply with just the number.

Output LBPA endosome anti-LBPA integrated intensity (z-score) of C=C1c2c(Cl)ccc(O)c2C(=O)C2=C(O)[C@]3(O)C(=O)C(C(N)=O)=C(O)[C@@H](N(C)C)[C@@H]3[C@@H](O)[C@H]12.O=C(O)c1cc(S(=O)(=O)O)ccc1O [Meclocycline sulfosalicylate]
-0.19

Output LBPA endosome anti-LBPA integrated intensity (z-score) of Nc1nc(N)c2nc(-c3ccccc3)c(N)nc2n1
-1.01

Output LBPA endosome anti-LBPA integrated intensity (z-score) of O=C(O)[C@H]1/C(=C/CO)O[C@@H]2CC(=O)N21 [Potassium clavulanate]
-0.536

Output LBPA endosome anti-LBPA integrated intensity (z-score) of OC(CCN1CCCCC1)(c1ccccc1)c1ccccc1 [Pridinol methanesulfonate salt]
0.215

Output LBPA endosome anti-LBPA integrated intensity (z-score) of CCCCCCCN(CC)CCCC(O)c1ccc(NS(C)(=O)=O)cc1 (configuration not stated) [Ibutilide fumarate]
1.54

Output LBPA endosome anti-LBPA integrated intensity (z-score) of CNNCc1ccc(C(=O)NC(C)C)cc1 [Procarbazine hydrochloride]
-1.08

Output LBPA endosome anti-LBPA integrated intensity (z-score) of CCN1CCC[C@H]1CNC(=O)c1c(OC)ccc(Br)c1OC [Remoxipride Hydrochloride]
0.278

Output LBPA endosome anti-LBPA integrated intensity (z-score) of CC1(C)S[C@@H]2[C@H](NC(=O)Cc3ccccc3)C(=O)N2[C@H]1C(=O)O
0.43

Output LBPA endosome anti-LBPA integrated intensity (z-score) of CC(C)(C)NC[C@@H](O)COc1cccc2c1CCCC2=O [(+) -Levobunolol hydrochloride]
1.33

Output LBPA endosome anti-LBPA integrated intensity (z-score) of Clc1ccc(CSC(Cn2ccnc2)c2ccc(Cl)cc2Cl)cc1 (configuration not stated) [Sulconazole nitrate]
1.59

Output LBPA endosome anti-LBPA integrated intensity (z-score) of Nc1nc2ccc(OC(F)(F)F)cc2s1 [Riluzole hydrochloride]
-0.758

Output LBPA endosome anti-LBPA integrated intensity (z-score) of COc1cc(N)c(Cl)cc1C(=O)NC1CCN(Cc2ccccc2)CC1 [Clebopride maleate]
2.01

Output LBPA endosome anti-LBPA integrated intensity (z-score) of CCOC(=O)/C=C(C)/C=C/C=C(C)/C=C/c1c(C)cc(OC)c(C)c1C [Etretinate]
0.358

Output LBPA endosome anti-LBPA integrated intensity (z-score) of Oc1c(I)cc(Cl)c2cccnc12
-0.976

Output LBPA endosome anti-LBPA integrated intensity (z-score) of O=C1CC2(CCCC2)CC(=O)N1CCCCN1CCN(c2ncccn2)CC1 [Buspirone hydrochloride]
-0.586

Output LBPA endosome anti-LBPA integrated intensity (z-score) of CCCCOC(=O)c1ccc(O)cc1
-0.532

Output LBPA endosome anti-LBPA integrated intensity (z-score) of CN1CCCC(CC2c3ccccc3Sc3ccccc32)C1 (configuration not stated) [Metixene hydrochloride]
1.25

====

Documented whole-cell filipin (z-score) across a set of compounds
# Tested on: A431
# Protocol Details: whole-cell filipin (free cholesterol) integrated intensity, Z-score; higher = more cholesterol staining
# Experimental Parameters: compound concentration in added solution (µM; 5 µl added to 20 µl cells): 10; 18 h
Counter-ions that a name gives are not always drawn.
Reply with just the number.

Compound	Readout Type	Measured Number
Cc1ccc2c(c1)c1c3n2CCNC3CCC1 (stereo unspecified) [Pirlindole mesylate]	whole-cell filipin (z-score)	0.654

Output whole-cell filipin (z-score) of CC(=O)[C@H]1CC[C@H]2[C@@H]3CCC4=CC(=O)CC[C@]4(C)[C@H]3CC[C@]12C
1.62

Output whole-cell filipin (z-score) of CC(=O)O[C@]1(C(C)=O)CC[C@H]2[C@@H]3C=C(C)C4=CC(=O)CC[C@]4(C)[C@H]3CC[C@@]21C [Megestrol acetate]
-0.244

Output whole-cell filipin (z-score) of NNc1nncc2ccccc12 [Hydralazine hydrochloride]
-0.55

Output whole-cell filipin (z-score) of c1cnc(N2CCN(Cc3ccc4c(c3)OCO4)CC2)nc1 [Piribedil hydrochloride]
0.544

Output whole-cell filipin (z-score) of CCn1cc(C(=O)O)c(=O)c2cnc(N3CCCC3)nc21
-0.293

Output whole-cell filipin (z-score) of CC[N+](CC)(CC)CCC(O)(c1ccccc1)C1CCCCC1 (stereo unspecified) [Tridihexethyl chloride]
-0.338

Output whole-cell filipin (z-score) of C=C1c2c(Cl)ccc(O)c2C(=O)C2=C(O)[C@]3(O)C(=O)C(C(N)=O)=C(O)[C@@H](N(C)C)[C@@H]3[C@@H](O)[C@H]12.O=C(O)c1cc(S(=O)(=O)O)ccc1O [Meclocycline sulfosalicylate]
-0.811

Output whole-cell filipin (z-score) of CC(=O)OCC(=O)[C@@]12OC(C)(C)O[C@@H]1C[C@H]1[C@@H]3C[C@H](F)C4=CC(=O)C=C[C@]4(C)[C@@]3(F)[C@@H](O)C[C@@]12C [Fluocinonide]
-0.144

Output whole-cell filipin (z-score) of COc1cc2nc(N3CCN(C(=O)C4CCCO4)CC3)nc(N)c2cc1OC (stereo unspecified) [Terazosin hydrochloride]
-0.323

Output whole-cell filipin (z-score) of OCCN1CCN(CCCN2c3ccccc3Sc3ccc(C(F)(F)F)cc32)CC1 [Fluphenazine dihydrochloride]
-0.522

Output whole-cell filipin (z-score) of C[C@]12C=CC(=O)C=C1CC[C@H]1[C@@H]3C[C@@H](O)[C@](O)(C(=O)CO)[C@@]3(C)C[C@H](O)[C@@]12F
-0.346

Output whole-cell filipin (z-score) of O=C(O)c1ccccc1C(=O)Nc1ccc(S(=O)(=O)Nc2nccs2)cc1
-0.41

Output whole-cell filipin (z-score) of CNCCC=C1c2ccccc2C=Cc2ccccc21
1.91

Output whole-cell filipin (z-score) of CCOC(=O)NNc1nncc2ccccc12 [Todralazine hydrochloride]
-0.897
